Target: Glutamate [NMDA] receptor
Test: Inhibition of [3H]DCKA binding to N-methyl-D-aspartate glutamate receptor
pIC50: −log10 of the molar value.
METRIC_NAME: pIC50

COc1cc2nc(O)c(O)nc2c(O)c1OC = 4.77
Oc1nc2ncc(Cl)cc2c(O)c1-c1cccc(Oc2ccccc2)c1 = 4.72
Cc1c(C#N)cc2nc(O)c(O)nc2c1[N+](=O)[O-] = 7.14

(1) Oc1nc2cc(Cl)cnc2c(O)c1Oc1cccc(-c2ccccc2)c1
(2) Nc1c(F)cc2nc(O)c(O)nc2c1[N+](=O)[O-]
(3) O=Nc1c(O)nc2ccccc2c1O
Ascending sort, pIC50. Show the ranking through the labels, in the order asked for. 2, 3, 1
(2: 4.96, 3: 5.85, 1: 7.64)

###

Target: Glutamate [NMDA] receptor
Test: Inhibition of [3H]DCKA binding to N-methyl-D-aspartate glutamate receptor
pIC50: −log10 of the molar value.
METRIC_NAME: pIC50

Oc1nc2cc(Cl)cnc2c(O)c1-c1ccsc1 = 5.37
Oc1nc2cnccc2c(O)c1-c1cccc(Oc2ccccc2)c1 = 5.27

###

Molecular target: Glutamate [NMDA] receptor
Assay: Inhibition of [3H]DCKA binding to N-methyl-D-aspartate glutamate receptor
METRIC_NAME: IC50 (µM)

(a) Oc1nc2ccccc2nc1O
(b) O=Nc1c(O)nc2ccc(Cl)cc2c1O
(c) COc1c(Br)cc2nc(O)c(O)nc2c1[N+](=O)[O-]
Rank the items above by IC50, largest value first. Reply format: the labels, ordered as requested. a, b, c

###

Biological target: Glutamate [NMDA] receptor
Experiment: Inhibition of [3H]DCKA binding to N-methyl-D-aspartate glutamate receptor
pIC50: −log10 of the molar value.
METRIC_NAME: pIC50

Sample answers from the record:
Cc1cc2nc(O)c(O)nc2cc1C = 5.48
O=[N+]([O-])c1c(OCCCc2ccccc2)c(F)cc2nc(O)c(O)nc12 = 5.40
Cc1c(Cl)cc2nc(O)c(O)nc2c1N = 6.82
O=Nc1c(O)nc2cc(Cl)c(Cl)c(Cl)c2c1O = 8.15
Cc1c(Br)cc2nc(O)c(O)nc2c1[N+](=O)[O-] = 8.06
CCCCOc1c(F)cc2nc(O)c(O)nc2c1[N+](=O)[O-] = 5.37

(A) CCSc1c(Cl)cc2nc(O)c(O)nc2c1[N+](=O)[O-]
(B) O=[N+]([O-])c1c(O)nc2cccc(Cl)c2c1O
Sort A and B by pIC50 descending and give the first. Provide the label of your selected option as the answer. A

(P) Cc1c(Cl)cc2nc(O)c(O)nc2c1[N+](=O)[O-]
(Q) Cc1cc(C)c2c(O)c(N=O)c(O)nc2c1
Larger number for pIC50: P , or Q ? Please respond with the label that marks your chosen entry. P

###

Target: Glutamate [NMDA] receptor
Assay: Inhibition of [3H]DCKA binding to N-methyl-D-aspartate glutamate receptor
Assay type: protein-complex assay
pIC50: −log10 of the molar value.
METRIC_NAME: pIC50

O=c1[nH]c2cc3c(c([N+](=O)[O-])c2[nH]c1=O)CCC3 = 5.51

(I) O=[N+]([O-])c1c(O)nc2cc(Cl)c(Cl)c(Cl)c2c1O
(II) Oc1nc2cc(Cl)cnc2c(O)c1-c1cccs1
(III) Cc1cc2nc(O)c(O)nc2c([N+](=O)[O-])c1C
(IV) Oc1nc2cc(Cl)cnc2c(O)c1-c1ccccc1Cl
(V) O=Nc1c(O)nc2cc(Cl)ccc2c1O
# rank_down: sort by pIC50, max first Use the labels to give the requested order. III, V, I, II, IV

(1) O=Nc1c(O)nc2cc(Cl)cc(Cl)c2c1O
(2) Oc1nc2ccncc2c(O)c1-c1cccc(Oc2ccccc2)c1
(3) CCOc1c(F)cc2nc(O)c(O)nc2c1[N+](=O)[O-]
(4) O=[N+]([O-])c1c(O)nc2c(F)c(Cl)c(F)cc2c1O
(5) O=[N+]([O-])c1c(O)nc2cc(Cl)ccc2c1O
Place the items in sequence of falling pIC50. Give your ranking as a list of the labels in the requested order. 1, 5, 3, 2, 4
(1: 7.48, 5: 5.82, 3: 5.44, 2: 4.70, 4: 4.40)

(A) Cc1cc(C)c2c(O)c([N+](=O)[O-])c(O)nc2c1
(B) Oc1nc2cc(Cl)cnc2c(O)c1-c1ccc(Cl)cc1
(C) Oc1nc2c(F)c(F)c(F)c(F)c2nc1O
(D) COc1cc2nc(O)c(O)nc2c(OC(C)=O)c1OC
(E) COc1cccc(-c2c(O)nc3cc(Cl)cnc3c2O)c1
Kindly order the items shown according to pIC50, from the highest value down. Labels, ranked as asked. A, C, E, B, D

(A) Oc1nc2cc(Cl)cc(Cl)c2nc1O
(B) Cc1cc([N+](=O)[O-])c2nc(O)c(O)nc2c1
Smaller pIC50 value? Options are A and B Provide the label of your selected option as the answer. B
